- System: mir-30a pri-miRNA
- Test: mir-30a luciferase reporter (pGL3C-M30-4X) assay in 293T cells
- Type: cell-based, human
- Experimental parameters: 150 nM oligomeric compound, then mir-30a pri-miRNA mimic 200 nM, pGL3C-M30-4X normalized to pRL-CMV
In the oligonucleotide strings, read from the 5' end, every base follows the letter of its sugar. An asterisk marks phosphorothioate; unmarked linkages are phosphodiester. Other units and linkages are bracketed, terminal groups are in braces. A string of capitals states the bases alone. e = 2'-O-(2-methoxyethyl) (MOE); [5mC] = 5-methylcytosine; d = 2'-deoxy (DNA)
Record Y whenever percent control luciferase expression is at 70 percent control or higher; record N when lower.

Substance	Target desc	Class label
328075 (antisense GCTTCACAGCTTCCAGTCGA; all 2'-MOE, all phosphorothioate, methylation of C not given here) [compound 328075]	mir-30a pri-miRNA	N
328076 (antisense eG*e[5mC]*eT*eT*e[5mC]*dA*d[5mC]*dA*dG*d[5mC]*dT*dT*d[5mC]*d[5mC]*dA*eG*eT*e[5mC]*eG*eA) [compound 328076]	mir-30a pri-miRNA	N
328088 (antisense eA*eA*eG*e[5mC]*e[5mC]*d[5mC]*dA*dT*d[5mC]*dT*dG*dT*dG*dG*d[5mC]*eT*eT*e[5mC]*eA*e[5mC]) [compound 328088]	mir-30a pri-miRNA	Y
328081 (antisense eT*eG*eA*eA*eA*dG*d[5mC]*d[5mC]*d[5mC]*dA*dT*d[5mC]*dT*dG*dT*eG*eG*e[5mC]*eT*eT) [compound 328081]	mir-30a pri-miRNA	Y
